Provide the reported 8OG:A repair function score of each item.
B1: library; numbered along this chain (parent)
chain: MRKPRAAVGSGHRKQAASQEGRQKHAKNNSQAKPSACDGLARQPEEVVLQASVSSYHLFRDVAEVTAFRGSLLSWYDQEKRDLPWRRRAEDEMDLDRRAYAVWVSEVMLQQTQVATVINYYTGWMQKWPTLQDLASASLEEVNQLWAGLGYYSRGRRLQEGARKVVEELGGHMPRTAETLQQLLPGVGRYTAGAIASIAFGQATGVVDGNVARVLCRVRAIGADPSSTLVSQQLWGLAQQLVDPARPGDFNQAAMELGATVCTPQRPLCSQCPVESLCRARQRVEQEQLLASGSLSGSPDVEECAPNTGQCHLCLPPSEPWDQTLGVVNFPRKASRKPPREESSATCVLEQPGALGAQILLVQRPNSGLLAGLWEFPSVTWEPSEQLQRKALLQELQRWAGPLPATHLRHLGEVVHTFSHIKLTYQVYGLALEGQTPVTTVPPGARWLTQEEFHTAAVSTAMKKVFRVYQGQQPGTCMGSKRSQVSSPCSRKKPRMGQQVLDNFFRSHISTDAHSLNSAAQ

Variants of: B1
protocol: 8OG:A repair function score (normalized; synonymous = 0, nonsense = -1) (normalized log-likelihood score); higher = more repair activity (WT-like);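 note: cells sorted at 72 h after reporter transfection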
appliedConditions: with 8OG:A DNA repair reporter (GFP) in HEK-293 MUTYH KO cells
Would you mind answering with just the numeric figure?

Inquiry: Retrieve 8OG:A repair function score measured for "V427C" and print it.
Reply text: -0.195

Inquiry: Retrieve 8OG:A repair function score measured for "A253Y" and print it.
Reply text: -0.985

Inquiry: Retrieve 8OG:A repair function score measured for "A245Q" and print it.
Reply text: 0.0913

Inquiry: Retrieve 8OG:A repair function score measured for "K164Y" and print it.
Reply text: -0.0367

Inquiry: Retrieve 8OG:A repair function score measured for "A223D" and print it.
Reply text: -0.631

Inquiry: Retrieve 8OG:A repair function score measured for "H514T" and print it.
Reply text: -0.02

Inquiry: Retrieve 8OG:A repair function score measured for "T449N" and print it.
Reply text: -0.203
